Let's go through some pKi measurements on Myeloid Cell Leukemia 1 (Mcl-1) (Homo sapiens (Human)) together.
Numbers only, as −log10 of the molar value.

{"Compound": "COc1nn(C)cc1C(=O)NS1(=O)=NC(=O)c2ccc3c(c2)N(C[C@@H]2CCO[C@H]2C(CN2CCN4CCOC[C@@H]4C2)(OC)/C(F)=C/C[C@H](C)C1)C[C@@]1(CCCc2cc(Cl)ccc21)CO3 (single isomer, unassigned) [Compound 27]", "Experimental Result": 10.32}
{"Compound": "COc1nn(C)cc1C(=O)NS1(=O)=NC(=O)c2ccc3c(c2)N(C[C@@H]2CCO[C@H]2C(CN2CCN4CCOC[C@@H]4C2)(OC)/C(F)=C/C[C@H](C)C1)C[C@@]1(CCCc2cc(Cl)ccc21)CO3 (single isomer, unassigned) [Compound 28]", "Experimental Result": 10.96}
{"Compound": "COCC1/C=C/C[C@H](C)[C@@H](C)S(=O)(=O)NC(=O)c2ccc3c(c2)N(C[C@@H]2CCO[C@@H]12)C[C@@]1(CCCc2cc(Cl)ccc21)CO3 (stereo partly drawn) [Compound 17]", "Experimental Result": 9.17}

Lab note: each compound below needs its pKi filled in.
1. C[C@@H]1[C@@H](C)C/C=C(\F)C(OCCN2CCOCC2)[C@@H]2OCC[C@H]2CN2C[C@@]3(CCCc4cc(Cl)ccc43)COc3ccc(cc32)C(=O)NS1(=O)=O (single isomer, unassigned) [Compound 4]
2. C[C@@H]1[C@@H](C)C/C=C(\F)C(O)(CC(=O)N(C)C)[C@@H]2OCC[C@H]2CN2C[C@@]3(CCCc4cc(Cl)ccc43)COc3ccc(cc32)C(=O)NS1(=O)=O (single isomer, unassigned) [Compound 21]
3. C[C@@H]1[C@@H](C)C/C=C/C(OCCN2CCOCC2)[C@@H]2OCC[C@H]2CN2C[C@@]3(CCCc4cc(Cl)ccc43)COc3ccc(cc32)C(=O)NS1(=O)=O (single isomer, unassigned)
4. COCCN(CCOC)CC1(OC)/C(F)=C/C[C@H](C)[C@@H](C)S(=O)(=O)NC(=O)c2ccc3c(c2)N(C[C@@H]2CCO[C@H]21)C[C@@]1(CCCc2cc(Cl)ccc21)CO3 (single isomer, unassigned)

Output:
1: 9.72; 2: 9.74; 3: 9.65; 4: 10.02

Lab note: each compound below needs its pKi filled in.
1. CO[C@H]1/C=C/C[C@H](C)[C@@H](C)S(=O)(=O)NC(=O)c2ccc3c(c2)N(C[C@@H]2CCO[C@H]21)C[C@@]1(CCCc2cc(Cl)ccc21)CO3
2. COc1nn(C)cc1C(=O)NS1(=O)=NC(=O)c2ccc3c(c2)N(C[C@@H]2CCO[C@H]2C(OC)/C(F)=C/C[C@H](C)C1)C[C@@]1(CCCc2cc(Cl)ccc21)CO3 (single isomer, unassigned) [Compound 24]

Output:
[9.33, 10.96]

====

Assign Ki to each entry below.
Experimental System: Myeloid Cell Leukemia 1 (Mcl-1) (Homo sapiens (Human), UniProt Q07820)
Sequence (Q07820 whole entry): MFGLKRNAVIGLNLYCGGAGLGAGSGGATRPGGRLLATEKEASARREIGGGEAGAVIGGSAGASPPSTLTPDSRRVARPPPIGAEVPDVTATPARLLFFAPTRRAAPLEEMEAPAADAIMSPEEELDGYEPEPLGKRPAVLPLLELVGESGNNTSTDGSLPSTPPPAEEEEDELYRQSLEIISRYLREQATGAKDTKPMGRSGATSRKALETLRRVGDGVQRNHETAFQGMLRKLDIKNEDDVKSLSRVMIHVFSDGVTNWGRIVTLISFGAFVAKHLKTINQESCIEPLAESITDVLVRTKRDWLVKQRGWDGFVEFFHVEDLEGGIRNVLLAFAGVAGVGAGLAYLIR
Give bare numbers, in pM.

{"Molecule": "C[C@@H]1[C@@H](C)C/C=C/C(CO)[C@@H]2OCC[C@H]2CN2C[C@@]3(CCCc4cc(Cl)ccc43)COc3ccc(cc32)C(=O)NS1(=O)=O (single isomer, unassigned) [Compound 15]", "Ki / pM": 636}
{"Molecule": "C[C@@H]1[C@@H](C)C/C=C/C(CO)[C@@H]2OCC[C@H]2CN2C[C@@]3(CCCc4cc(Cl)ccc43)COc3ccc(cc32)C(=O)NS1(=O)=O (single isomer, unassigned) [Compound 14]", "Ki / pM": 521}

Lab note: each molecule below needs its Ki filled in.
1. COc1nn(C)cc1C(=O)NS1(=O)=NC(=O)c2ccc3c(c2)N(C[C@@H]2CCO[C@H]2C(OC)/C(F)=C/C[C@H](C)C1)C[C@@]1(CCCc2cc(Cl)ccc21)CO3 (single isomer, unassigned) [Compound 26]
2. COc1nn(C)cc1C(=O)NS1(=O)=NC(=O)c2ccc3c(c2)N(C[C@@H]2CCO[C@H]2C(OC)/C=C/C[C@H](C)C1)C[C@@]1(CCCc2cc(Cl)ccc21)CO3 (single isomer, unassigned) [Compound 9]
3. COc1nn(C)cc1C(=O)NS1(=O)=NC(=O)c2ccc3c(c2)N(C[C@@H]2CCO[C@H]2C(OC)/C=C/C[C@H](C)C1)C[C@@]1(CCCc2cc(Cl)ccc21)CO3 (single isomer, unassigned) [Compound 8]

Output:
[5120, 50, 23.1]

====

Assign AC50 to each entry below.
System: MOLP-8 human multiple myeloma cell line
Assay Explanation: Caspase-Glo 3/7 apoptosis induction assay in MOLP-8 cells
Type: cell-based
Condition Notes: Homo sapiens, MOLP-8, 2 h, caspase-3/7 activity; 2 hours at 37° C.; averaged over all runs on all batches; read-out: MOLP8 AC50

Example entries begin here.
{"Compound": "COCC1/C=C/C[C@H](C)[C@@H](C)S(=O)(=O)NC(=O)c2ccc3c(c2)N(C[C@@H]2CCO[C@@H]12)C[C@@]1(CCCc2cc(Cl)ccc21)CO3 (stereo partly drawn)", "AC50": "1820 nM"}
{"Compound": "CO[C@H]1/C(F)=C/C[C@H](C)[C@@H](C)S(=O)(=O)NC(=O)c2ccc3c(c2)N(C[C@@H]2CCO[C@H]21)C[C@@]1(CCCc2cc(Cl)ccc21)CO3", "AC50": "191 nM"}
{"Compound": "CO[C@@H]1/C(F)=C/C[C@H](C)[C@@H](C)S(=O)(=O)NC(=O)c2ccc3c(c2)N(C[C@@H]2CCO[C@H]21)C[C@@]1(CCCc2cc(Cl)ccc21)CO3", "AC50": "1120 nM"}
{"Compound": "CO[C@H]1/C=C/C[C@H](C)[C@@H](C)S(=O)(=O)NC(=O)c2ccc3c(c2)N(C[C@@H]2CCO[C@H]21)C[C@@]1(CCCc2cc(Cl)ccc21)CO3", "AC50": "432 nM"}
{"Compound": "C[C@@H]1[C@@H](C)C/C=C/C(O)[C@@H]2OCC[C@H]2CN2C[C@@]3(CCCc4cc(Cl)ccc43)COc3ccc(cc32)C(=O)NS1(=O)=O (single isomer, unassigned)", "AC50": "752 nM"}
{"Compound": "COCCN(CCOC)CC1(OC)/C(F)=C/C[C@H](C)[C@@H](C)S(=O)(=O)NC(=O)c2ccc3c(c2)N(C[C@@H]2CCO[C@H]21)C[C@@]1(CCCc2cc(Cl)ccc21)CO3 (single isomer, unassigned)", "AC50": "412 nM"}
{"Compound": "CO[C@@]1(CN2CCN3CCOC[C@@H]3C2)/C(F)=C/C[C@H](C)[C@@H](C)S(=O)(=O)NC(=O)c2ccc3c(c2)N(C[C@@H]2CCO[C@H]21)C[C@@]1(CCCc2cc(Cl)ccc21)CO3", "AC50": "69 nM"}
{"Compound": "C[C@@H]1[C@@H](C)C/C=C/C(OCCN2CCOCC2)[C@@H]2OCC[C@H]2CN2C[C@@]3(CCCc4cc(Cl)ccc43)COc3ccc(cc32)C(=O)NS1(=O)=O (single isomer, unassigned)", "AC50": "616 nM"}

We next turn to a different compound, shown below.
Quick note, AC50 for CO[C@]1(CN2CCN3CCOC[C@@H]3C2)/C(F)=C/C[C@H](C)[C@@H](C)S(=O)(=O)NC(=O)c2ccc3c(c2)N(C[C@@H]2CCO[C@H]21)C[C@@]1(CCCc2cc(Cl)ccc21)CO3 landed at 88 nM

====

Experimental System: Myeloid Cell Leukemia 1 (Mcl-1) (Homo sapiens (Human), UniProt Q07820)
pKi: −log10 of the molar value.
# if value of pKi reaches 9, tag condition met; if it stays below, tag condition not met

A selection of reference data follows.
{"Molecule": "COc1nn(C)cc1C(=O)NS1(=O)=NC(=O)c2ccc3c(c2)N(C[C@@H]2CCO[C@H]2C(OC)/C=C/C[C@H](C)C1)C[C@@]1(CCCc2cc(Cl)ccc21)CO3 (single isomer, unassigned) [Compound 10]", "Assigned Class": "condition met"}
{"Molecule": "COc1nn(C)cc1C(=O)NS1(=O)=NC(=O)c2ccc3c(c2)N(C[C@@H]2CCO[C@H]2C(CN2CCN4CCOC[C@@H]4C2)(OC)/C(F)=C/C[C@H](C)C1)C[C@@]1(CCCc2cc(Cl)ccc21)CO3 (single isomer, unassigned) [Compound 29]", "Assigned Class": "condition met"}
{"Molecule": "COc1nn(C)cc1C(=O)NS1(=O)=NC(=O)c2ccc3c(c2)N(C[C@@H]2CCO[C@H]2C(CN2CCN4CCOC[C@@H]4C2)(OC)/C(F)=C/C[C@H](C)C1)C[C@@]1(CCCc2cc(Cl)ccc21)CO3 (single isomer, unassigned) [Compound 30]", "Assigned Class": "condition met"}

Task: Assess whether reported pKi for COc1nn(C)cc1C(=O)NS1(=O)=NC(=O)c2ccc3c(c2)N(C[C@@H]2CCO[C@H]2C(OC)/C(F)=C/C[C@H](C)C1)C[C@@]1(CCCc2cc(Cl)ccc21)CO3 (single isomer, unassigned) [Compound 23] sits at 9 or higher.
Output: condition met

Task: Assess whether reported pKi for COC1/C(F)=C/C[C@H](C)[C@@H](C)S(=O)(=O)NC(=O)c2cnc3c(n2)N(C[C@@H]2CCO[C@@H]12)C[C@@]1(CCCc2cc(Cl)ccc21)CO3 (single isomer, unassigned) [Compound 13] sits at 9 or higher.
Output: condition not met
